Test system: ChemSTAT creatinine sensor (creatininase, creatinase and sarcosine oxidase)
assayComment: Creatinine and creatine sensor slopes over time with biocide in Process Control Solution (PCS)
Type: biochemical
observationType: Inhibition/inactivation of creatininase, creatinase and sarcosine oxidase

Past entries and their recorded results:
[
  {
    "molecule": "Cn1sc2ccccc2c1=O",
    "testResult": "irreversibly inhibited"
  },
  {
    "molecule": "Cn1sc(Cl)cc1=O",
    "testResult": "irreversibly inhibited"
  },
  {
    "molecule": "CCn1cc(C(=O)O)c(=O)c2cc(F)c(N3CCNCC3)cc21",
    "testResult": "irreversibly inhibited"
  },
  {
    "molecule": "O=c1[nH]sc2ccccc12",
    "testResult": "irreversibly inhibited"
  }
]

What the record says about `CC1(C)NC(=O)NC1=O` : Inhibition/inactivation of creatininase, creatinase and sarcosine oxidase is irreversibly inhibited

What the record says about `COc1cc(Cc2cnc(N)nc2N)cc(OC)c1OC` : Inhibition/inactivation of creatininase, creatinase and sarcosine oxidase is irreversibly inhibited

What the record says about CCCCNC(=O)OCC#CI [Omacide IPBC, iodopropynylbutylcarbamate] : Inhibition/inactivation of creatininase, creatinase and sarcosine oxidase is irreversibly inhibited
